experiment.summary: Cytotoxicity against HOSEC assessed as survival at 10 uM after 48 hrs by MTT assay relative to control
condition.info: human, HOSEC cells; read-out: Survival
Decide using viability at 48 h, 10 µM alone. Strictly below 80%: True. Equal to or above 80%: False.

CCCc1ccc(C(=O)OCc2c(OCC)ccc3c(C)cc(=O)oc23)cc1: True
COc1cc(C(=O)OCc2c(OC(C)C)ccc3c(C)cc(=O)oc23)cc(OC)c1OC: True
Cc1cc(=O)oc2c(COC(=O)c3ccc(C(C)(C)C)cc3)c(OC(C)C)ccc12: False
COc1ccc(/C=C/C(=O)OCc2c(OC(C)C)ccc3c(C)cc(=O)oc23)cc1: False
Cc1cc(=O)oc2c(COC(=O)c3cccc(N(C)C)c3)c(OC(C)C)ccc12: True

Q: Could you please tell me whether viability at 48 h, 10 µM recorded for `COc1cc(OC)c(C(=O)OCc2c(OC(C)C)ccc3c(C)cc(=O)oc23)cc1OC` is less than 80%?
Ans: False

Q: Please state whether viability at 48 h, 10 µM is below 80% for `CCOc1ccc2c(C)cc(=O)oc2c1COC(=O)CCc1ccc(OC)cc1`
Ans: True

Q: Just wondering, is viability at 48 h, 10 µM of `CCOc1ccc2c(C)cc(=O)oc2c1COC(=O)c1cc(OC)c(OC)c(OC)c1` below 80%?
Ans: False

* * *

Listing of entries alongside the reported viability at 48 h, 10 µM.
experiment.summary: Cytotoxicity against human T29 cells assessed as survival at 10 uM after 48 hrs by MTT assay relative to control
Type: cell-based
condition.info: read-out: Survival
Remember to quote the unit after the number.

Example entries begin here.
CCOc1ccc2c(C)cc(=O)oc2c1COC(=O)c1c(F)cccc1F: 94.6%
Cc1cc(=O)oc2c(COC(=O)c3ccc(F)cc3)c(OC(C)C)ccc12: 85.3%
COc1cc(OC)c(C(=O)OCc2c(OC(C)C)ccc3c(C)cc(=O)oc23)cc1OC: 90.9%
CCOc1ccc2c(C)cc(=O)oc2c1COC(=O)c1ccc(Cl)c([N+](=O)[O-])c1: 72.6%

Q: Identify measured viability at 48 h, 10 µM corresponding to `CCOc1ccc2c(C)cc(=O)oc2c1COC(=O)/C=C/c1ccccc1`
Ans: 98.7%

Q: Given the compound `CCOc1ccc2c(C)cc(=O)oc2c1COC(=O)c1cccc(N(C)C)c1` , write its reported viability at 48 h, 10 µM.
Ans: 106%

Q: Tell me viability at 48 h, 10 µM reported for `CCOc1ccc2c(C)cc(=O)oc2c1COC(=O)c1cc(OC)c(OC)cc1OC`
Ans: 89.5%

Q: Kindly indicate its recorded viability at 48 h, 10 µM. Item: `CCOc1ccc2c(C)cc(=O)oc2c1COC(=O)c1ccc(F)cc1`
Ans: 88.6%

Q: In one line, give reported viability at 48 h, 10 µM of the entry `Cc1cc(=O)oc2c(CO)c(OC(C)C)ccc12` .
Ans: 88.6%

Q: Item `CCOc1ccc2c(C)cc(=O)oc2c1COC(=O)c1cc(OC)c(OC)c(OC)c1` : provide viability at 48 h, 10 µM
Ans: 103%

Q: Tell us which viability at 48 h, 10 µM value is on record for `CCOc1ccc2c(C)cc(=O)oc2c1COC(=O)c1ccc(C)cc1`
Ans: 86.1%

Q: Specify viability at 48 h, 10 µM for `CCOc1ccc2c(C)cc(=O)oc2c1COC(=O)/C=C/c1ccc(Cl)cc1` and stop.
Ans: 106%

Q: Provide only the value of recorded viability at 48 h, 10 µM for `COc1ccc(/C=C/C(=O)OCc2c(OC(C)C)ccc3c(C)cc(=O)oc23)cc1`
Ans: 90.4%

Q: Please report the measured viability at 48 h, 10 µM for `CCOc1ccc2c(C)cc(=O)oc2c1COC(=O)c1ccc(OC)c(OC)c1`
Ans: 86.1%

Q: Read the entry `CCCc1ccc(C(=O)OCc2c(OCC)ccc3c(C)cc(=O)oc23)cc1` and write its reported viability at 48 h, 10 µM.
Ans: 97.2%

Q: Please report viability at 48 h, 10 µM for the following compound: `Cc1cc(=O)oc2c(COC(=O)c3cccc(N(C)C)c3)c(OC(C)C)ccc12`
Ans: 90.8%

* * *

experiment.summary: Cytotoxicity against human A2780/TAX cells assessed as survival at 10 uM after 48 hrs by MTT assay relative to control
Format: cell-based, A2780/Taxol
condition.info: read-out: Survival
readout: viability at 48 h, 10 µM (%)
Your answer should be a plain number; it is taken to be in %.

# example entries with known answers
CCOc1ccc2c(C)cc(=O)oc2c1COC(=O)/C=C/c1ccc(Cl)cc1: 102
CCOc1ccc2c(C)cc(=O)oc2c1COC(=O)/C=C/c1ccccc1: 98.9
CCOc1ccc2c(C)cc(=O)oc2c1COC(=O)c1cc(OC)c(OC)c(OC)c1: 97.6
Cc1ccc(C(=O)OCc2c(OC(C)C)ccc3c(C)cc(=O)oc23)cc1: 95.2
CCOc1ccc2c(C)cc(=O)oc2c1COC(=O)c1ccc(OC)c(OC)c1: 83.1
COc1cc(OC)c(C(=O)OCc2c(OC(C)C)ccc3c(C)cc(=O)oc23)cc1OC: 106
CCOc1ccc2c(C)cc(=O)oc2c1COC(=O)CCc1ccc(OC)cc1: 101
Cc1cc(=O)oc2c(COC(=O)/C=C/c3ccccc3)c(OC(C)C)ccc12: 103

Q: State its viability at 48 h, 10 µM for this compound: `CCOc1ccc2c(C)cc(=O)oc2c1COC(=O)/C=C/c1ccc(OC)cc1`
Ans: 83.6

Q: Write down viability at 48 h, 10 µM measured for item `COc1cc(C(=O)OCc2c(OC(C)C)ccc3c(C)cc(=O)oc23)cc(OC)c1OC`
Ans: 94.6

Q: Specify reported viability at 48 h, 10 µM for the compound shown: `CCOc1ccc2c(C)cc(=O)oc2c1COC(=O)c1cccc(N(C)C)c1`
Ans: 97

* * *

experiment.summary: Cytotoxicity against HUVEC assessed as survival at 10 uM after 48 hrs by MTT assay relative to control
Assay type: cell-based
condition.info: human, HUVEC cells; read-out: Survival
readout: viability at 48 h, 10 µM
Value and unit, in that order.

Some solved cases for reference:
Cc1ccc(C(=O)OCc2c(OC(C)C)ccc3c(C)cc(=O)oc23)cc1: 75.6%
Cc1cc(=O)oc2c(COC(=O)/C=C/c3ccccc3)c(OC(C)C)ccc12: 95.9%
CCOc1ccc2c(C)cc(=O)oc2c1COC(=O)CCc1ccc(OC)cc1: 85%
CCOc1ccc2c(C)cc(=O)oc2c1COC(=O)/C=C/c1ccccc1: 84.7%

Next compound, viability at 48 h, 10 µM to be filled in.
Q: Using the record for `COc1ccc(C(=O)OCc2c(OC(C)C)ccc3c(C)cc(=O)oc23)cc1OC` , state its measured viability at 48 h, 10 µM.
Ans: 84.2%

* * *

experiment.summary: Cytotoxicity against human T29 cells assessed as survival at 10 uM after 48 hrs by MTT assay relative to control
Format: cell-based
condition.info: read-out: Survival
Please respond with label 1 when measured viability at 48 h, 10 µM is strictly beneath 90%, and with label 0 in all other cases.

Cc1cc(=O)oc2c(COC(=O)c3ccc(C(C)(C)C)cc3)c(OC(C)C)ccc12: label 0
CCOc1ccc2c(C)cc(=O)oc2c1COC(=O)c1ccc(C(C)(C)C)cc1: label 1
CCOc1ccc2c(C)cc(=O)oc2c1COC(=O)c1cccc(OC)c1: label 1

Q: Dear colleague, could you confirm whether viability at 48 h, 10 µM of `CCCc1ccc(C(=O)OCc2c(OC(C)C)ccc3c(C)cc(=O)oc23)cc1` falls below 90%? Thanks.
Ans: label 0

* * *

experiment.summary: Cytotoxicity against human T29 cells assessed as survival at 10 uM after 48 hrs by MTT assay relative to control
Assay type: cell-based
condition.info: read-out: Survival
Quick reference for viability at 48 h, 10 µM among some molecules
Expressed in %, but write only the number.

COc1cc(C(=O)OCc2c(OC(C)C)ccc3c(C)cc(=O)oc23)cc(OC)c1OC: 81.5
COc1ccc(C(=O)OCc2c(OC(C)C)ccc3c(C)cc(=O)oc23)cc1OC: 101
Cc1ccc(C(=O)OCc2c(OC(C)C)ccc3c(C)cc(=O)oc23)cc1: 91.2
Cc1cc(=O)oc2c(COC(=O)/C=C/c3ccccc3)c(OC(C)C)ccc12: 104

Now consider the entry below.
Q: Entry `CCOc1ccc2c(C)cc(=O)oc2c1COC(=O)/C=C/c1ccc(OC)cc1` needs its viability at 48 h, 10 µM filled in; supply it.
Ans: 98.9

* * *

experiment.summary: Cytotoxicity against HOSEC assessed as survival at 10 uM after 48 hrs by MTT assay relative to control
condition.info: human, HOSEC cells; read-out: Survival
Doc: threshold 80% (exclusive). Items with viability at 48 h, 10 µM beneath it return condition met; others return condition not met.

Here's what some known entries look like.
CCOc1ccc2c(C)cc(=O)oc2c1COC(=O)/C=C/c1ccc(Cl)cc1: condition not met
CCOc1ccc2c(C)cc(=O)oc2c1COC(=O)c1cccc(N(C)C)c1: condition not met
Cc1cc(=O)oc2c(COC(=O)c3ccc(F)cc3)c(OC(C)C)ccc12: condition met
Cc1cc(=O)oc2c(COC(=O)/C=C/c3ccccc3)c(OC(C)C)ccc12: condition not met

Q: Quick check: viability at 48 h, 10 µM of `CCOc1ccc2c(C)cc(=O)oc2c1COC(=O)/C=C/c1ccccc1` under 80%?
Ans: condition not met

Q: Report whether reported viability at 48 h, 10 µM is lower than 80% (strictly) for `CCOc1ccc2c(C)cc(=O)oc2c1COC(=O)c1ccc(OC)c(OC)c1`
Ans: condition met

Q: Is viability at 48 h, 10 µM of `CCCc1ccc(C(=O)OCc2c(OC(C)C)ccc3c(C)cc(=O)oc23)cc1` strictly below 80%?
Ans: condition not met

Q: Would you kindly verify if viability at 48 h, 10 µM of `CCOc1ccc2c(C)cc(=O)oc2c1COC(=O)c1ccc(Cl)c([N+](=O)[O-])c1` is strictly less than 80%?
Ans: condition met

Q: In plain terms, does `CCOc1ccc2c(C)cc(=O)oc2c1COC(=O)c1ccc(C)cc1` come in under 80% for viability at 48 h, 10 µM?
Ans: condition met

Q: Answer whether the molecule `CCOc1ccc2c(C)cc(=O)oc2c1COC(=O)/C=C/c1ccc(OC)cc1` has viability at 48 h, 10 µM strictly less than 80%
Ans: condition not met

Q: Record `COc1ccc(C(=O)OCc2c(OC(C)C)ccc3c(C)cc(=O)oc23)cc1OC` : is its viability at 48 h, 10 µM strictly below 80%?
Ans: condition not met

Q: Take the molecule `CCOc1ccc2c(C)cc(=O)oc2c1COC(=O)c1cccc(OC)c1` and say whether its viability at 48 h, 10 µM is less than 80%.
Ans: condition met
